- Experimental System: HusA Y133A (Porphyromonas gingivalis, UniProt Q7MSY3, Y133A)
- Sequence (Q7MSY3 24-218 Y133A): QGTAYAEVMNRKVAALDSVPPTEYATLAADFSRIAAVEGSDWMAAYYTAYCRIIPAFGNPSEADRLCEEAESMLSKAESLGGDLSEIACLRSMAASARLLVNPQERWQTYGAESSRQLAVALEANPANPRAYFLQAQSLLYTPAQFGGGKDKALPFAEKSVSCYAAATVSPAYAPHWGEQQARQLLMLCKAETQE
- Protocol Summary: Tryptophan fluorescence quenching assay, HusA mutant Y133A
- Condition Info: haemin
Readout Kind: Kd (µM)
Kindly provide the numeric value in µM only, without the unit symbol.

# input State its Kd: C=CC1=C(C)c2cc3[nH]c(cc4nc(cc5[nH]c(cc1n2)c(C)c5CCC(=O)O)C(CCC(=O)O)=C4C)c(C)c3C=C.[Fe+3] [haemin]
# output 7.4

====

- Experimental System: HusA L123N-V124N (Porphyromonas gingivalis, UniProt Q7MSY3, L123N/V124N)
- Sequence (Q7MSY3 24-218 L123N/V124N): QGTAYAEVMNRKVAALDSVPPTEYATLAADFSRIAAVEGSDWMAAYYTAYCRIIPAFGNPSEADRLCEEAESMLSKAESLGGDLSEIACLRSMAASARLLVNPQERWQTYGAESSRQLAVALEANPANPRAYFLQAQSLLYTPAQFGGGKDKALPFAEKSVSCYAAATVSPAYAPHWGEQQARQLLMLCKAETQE
- Protocol Summary: Tryptophan fluorescence quenching assay, HusA mutant L123N-V124N
- Condition Info: haemin, mutant L123N-V124N
Readout Kind: pKd
On this scale, pKd is minus log10 of a concentration expressed in M (mol/L).

# input State its pKd: C=CC1=C(C)c2cc3[nH]c(cc4nc(cc5[nH]c(cc1n2)c(C)c5CCC(=O)O)C(CCC(=O)O)=C4C)c(C)c3C=C.[Fe+3]
# output 4.99
